src = patent US8487103B2

- tested system: HCV polymerase (NS5B570n-Con1) (Hepatitis C virus genotype 1b)
- Construct: contains a 21 amino acid deletion at the C-terminus relative to the full-length HCV polymerase; 6-histidine (N)
- assay explanation: HCV NS5B RNA Polymerase Activity
quantity measured: pIC50
// pIC50 is dimensionless: -log10 of concentration (M)

COc1c(C(C)(C)C)cc(-c2ccc[nH]c2=O)c2ncc(N3CC[C@H](CNS(C)(=O)=O)C3)cc12 ... 9.70
COc1c(C(C)(C)C)cc(-c2cc(Cl)c[nH]c2=O)c2ncc(-c3ccc(NS(C)(=O)=O)cc3)cc12 ... 9.00
COc1c(C2(C(F)F)CC2)cc(-n2ccc(=O)[nH]c2=O)c2ncc(-c3ccc(NS(C)(=O)=O)cc3)cc12 ... 8.47
CC(C)(C)c1cc(-c2cc(F)c[nH]c2=O)c2ncc(N3CC[C@H](CNS(C)(=O)=O)C3)nc2c1 ... 6.72
COc1c(C(C)(C)C)cc(-c2ccc[nH]c2=O)c2ncccc12 ... 7.42

Problem: Which pIC50 value is on record for `COc1c(C(F)(F)F)cc(-n2ccc(=O)[nH]c2=O)c2ncc(-c3ccc(NS(C)(=O)=O)cc3)cc12` ?
Solution: 8.42

Problem: Quick one: `COc1c(CC(F)(F)F)cc(-n2ccc(=O)[nH]c2=O)c2ncc(-c3ccc(NS(C)(=O)=O)cc3)cc12`
Solution: 7.41

---

- tested system: HCV polymerase (NS5B570n-Con1) (Hepatitis C virus genotype 1b, UniProt Q9WMX2)
- Construct: contains a 21 amino acid deletion at the C-terminus relative to the full-length HCV polymerase; 6-histidine (N)
- assay explanation: HCV NS5B RNA Polymerase Activity
quantity measured: IC50 (nM)
Response body: numeric value in nM, unit text excluded.

Examples from the recorded data:
COc1c(C(C)(C)C)cc(N2CCC(=O)NC2=O)c2ncc(N3CC[C@H](CNS(C)(=O)=O)C3)cc12 [Compound I-31] ... 1.8
CC(C)(C)c1cc(-c2cc(F)c[nH]c2=O)c2ncc(-c3ccc(NS(C)(=O)=O)cc3)nc2c1 [Compound I-2] ... 31
COc1ccc(-c2cc(C3(C(F)F)CC3)c(OC)c3cc(-c4ccc(NS(C)(=O)=O)cc4)cnc23)c(=O)[nH]1 [Compound I-38] ... 0.6

Problem: Looking for the measured IC50 of COc1c(C(C)(C)C)cc(-n2ccc(=O)[nH]c2=O)c2ncc(-c3ccc(NS(C)(=O)=O)cc3)cc12 [Compound I-21] , can you help?
Solution: 2.2

---

# pIC50 values compiled below
- tested system: HCV polymerase (NS5B570n-Con1) (Hepatitis C virus genotype 1b)
- Construct: contains a 21 amino acid deletion at the C-terminus relative to the full-length HCV polymerase; 6-histidine (N)
- assay explanation: HCV NS5B RNA Polymerase Activity
The meaning of pIC50 here: minus log10 of the concentration in molar units.

Solved cases (3 shown):
COc1ccc(-c2cc(C(C)(C)C)c(OC)c3cc(-c4ccc(NS(C)(=O)=O)cc4)cnc23)c(=O)[nH]1 ... 8.00
COc1c(C(C)(C)C)cc(Br)c2ncc(-c3ccc(NS(C)(=O)=O)cc3)cc12 ... 6.65
COc1c(C(C)(C)C)cc(-c2ccc(CO)[nH]c2=O)c2ncc(-c3ccc(NS(C)(=O)=O)cc3)cc12 ... 9.70

From here, focus on the item given below.
Problem: Name the reported pIC50 value associated with the compound `CC(C)(C)c1cc(-c2ccc[nH]c2=O)c2ncc(-c3ccc(NS(C)(=O)=O)cc3)nc2c1`
Solution: 9.00
